# pIC50 measurements, system: TrkA (Homo sapiens, UniProt P04629)
# Sequence (P04629 33-796): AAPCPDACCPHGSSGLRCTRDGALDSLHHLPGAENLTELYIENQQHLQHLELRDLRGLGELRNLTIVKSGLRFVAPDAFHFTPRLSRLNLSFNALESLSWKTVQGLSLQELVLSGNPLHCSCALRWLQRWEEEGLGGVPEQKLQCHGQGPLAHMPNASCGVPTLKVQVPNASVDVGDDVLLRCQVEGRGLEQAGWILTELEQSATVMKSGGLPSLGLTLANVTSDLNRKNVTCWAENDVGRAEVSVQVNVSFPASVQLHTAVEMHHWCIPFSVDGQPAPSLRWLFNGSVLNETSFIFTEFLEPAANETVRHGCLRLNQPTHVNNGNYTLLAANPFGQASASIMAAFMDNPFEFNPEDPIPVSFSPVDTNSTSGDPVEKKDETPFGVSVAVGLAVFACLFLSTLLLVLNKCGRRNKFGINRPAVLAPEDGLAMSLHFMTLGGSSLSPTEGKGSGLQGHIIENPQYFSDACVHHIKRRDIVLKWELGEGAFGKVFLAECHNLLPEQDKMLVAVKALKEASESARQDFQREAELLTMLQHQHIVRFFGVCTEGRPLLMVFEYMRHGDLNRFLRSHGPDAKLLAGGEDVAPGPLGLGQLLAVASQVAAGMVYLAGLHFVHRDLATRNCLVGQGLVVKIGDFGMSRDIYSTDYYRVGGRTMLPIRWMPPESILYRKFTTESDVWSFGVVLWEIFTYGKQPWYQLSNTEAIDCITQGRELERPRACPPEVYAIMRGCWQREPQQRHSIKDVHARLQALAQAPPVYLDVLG
Hey, just a heads up that pIC50 is the negative log base 10 of the concentration in molar.

// below: answered compounds
compound	endpoint.label	reported.measurement
Cc1n[nH]c2cc(-c3ccc(C(N)=O)c(N4CC5(CN(CC(F)(F)F)C5)C4)c3)cc(OC3CCOCC3)c12	pIC50	5.98
NC(=O)c1ccc(-c2cc(OC3CCCC3)c3c(N)n[nH]c3c2)cc1N1CCN(c2ccc(F)cc2)CC1	pIC50	7.76
CC(=O)Nc1ccc(-c2cc(OC3CCOCC3)c3c(C)n[nH]c3c2)cc1N1CCN(Cc2cccnc2)CC1	pIC50	7.46
CC(O)c1ccc(-c2cc(OC3CCOCC3)c3c(N)n[nH]c3c2)cc1N1CCN(c2cccnc2)CC1 (stereo not drawn)	pIC50	6.60
CNC(=O)c1ccc(-c2cc(OC3CCOCC3)c3c(N)n[nH]c3c2)cc1N1CCN(C(=O)OC(C)C)CC1	pIC50	7.09

Query: Fetch value of pIC50 on TrkA (Homo sapiens, UniProt P04629) for `CNC(=O)c1ccc(-c2cc(OC3CCOCC3)c3c(C)n[nH]c3c2)cc1N1CCN(S(=O)(=O)c2ccc(C)cc2)CC1` .
Response: 8.13
